Where do these numbers come from? They come from PubChem BioAssay (NCI).

# System: SK-MEL-2 melanoma
# test_description: NCI tumour cell line growth inhibition, 48 h
parameter_measured: GI50

Task: Give GI50 for COc1cccc(-c2nc3cc(NC(=O)c4ccc(Cl)c(C#N)c4)ccc3o2)c1 tested on SK-MEL-2 melanoma.
Result: 9.21 µM

Task: Give GI50 for O=C(Oc1cccnc1)c1cccnc1Nc1ccnc(C(F)(F)F)c1 tested on SK-MEL-2 melanoma.
Result: 5.7 µM

Task: Give GI50 for CCOC(=O)Oc1c(OC)cc(C(=O)c2ccc(OC)c(O)c2OC)cc1OC tested on SK-MEL-2 melanoma.
Result: 1.79 µM

Further cases:
Task: Give GI50 for CCc1c2c(nc3ccc(OCc4ccc(B(O)O)cc4)cc13)-c1cc3c(c(=O)n1C2)COC(=O)[C@]3(O)CC tested on SK-MEL-2 melanoma.
Result: 0.63 µM

Task: Give GI50 for O=C1/C(=C/c2ccc([N+](=O)[O-])cc2)CN(C(=O)CCN2CCC(=NO)CC2)C/C1=C\c1ccc([N+](=O)[O-])cc1 tested on SK-MEL-2 melanoma.
Result: 4.74 µM

Task: Give GI50 for CC(=O)c1c(C(F)(F)F)n([O-])c2ccccc2[n+]1=O tested on SK-MEL-2 melanoma.
Result: 4.56 µM
